Biological target: T1, human CD3ε/δ-Fc fusion protein (soluble recombinant CD3ε/δ complex) (human, UniProt P04234 22-105)
T1 construct: also called huCD3ε/δ; huCD3; not shown: hinge, CH2, CH3 of human IgG with tag
T1 sequence (chain, as listed by the source mutant, chain 1 of 2): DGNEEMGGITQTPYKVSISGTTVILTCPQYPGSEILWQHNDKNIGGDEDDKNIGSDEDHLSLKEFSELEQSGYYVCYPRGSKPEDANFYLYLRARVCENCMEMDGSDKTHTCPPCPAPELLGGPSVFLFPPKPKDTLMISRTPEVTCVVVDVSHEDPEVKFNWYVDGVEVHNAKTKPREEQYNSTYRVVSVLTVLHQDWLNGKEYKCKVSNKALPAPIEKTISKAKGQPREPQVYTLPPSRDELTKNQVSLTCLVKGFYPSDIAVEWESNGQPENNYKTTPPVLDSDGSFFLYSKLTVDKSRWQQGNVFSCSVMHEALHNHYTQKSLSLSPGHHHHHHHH
T1 sequence (P04234 22-105, stated change not applied, chain 2 of 2): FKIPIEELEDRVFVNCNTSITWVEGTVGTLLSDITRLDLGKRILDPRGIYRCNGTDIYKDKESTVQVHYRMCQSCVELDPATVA
Assay: SPR Biacore, CD3εδ-Fc captured, Fab analyte
Assign pKd to each entry below.
Interpret pKd as the negative base-10 log of the concentration measured in mol/L.

In one line, give reported pKd of the entry 4B4-D7 Fab (Fab, V domains shown, also called BDW-4B4-D7) VH: EVQLVETGGRLVQPGRSLKLTCATSGFTFSNAWMHWVRQSPEKQLEWVAQIKARSNNYATYYAESVKGRFTISRDDSKSTIYLQMNSLKEEDTAIYYCRGTYYASKPFDYWGQGVMVTVSS VL: DVVMTQTPVSLSVSLGGQVSISCRSSQSLVHDNGNTYLSWSLQRPGQSPQVLIYKVSNRFSGTSDRFTGSGSGTDFTLKISRVEPDDLGVYYCGQGTQYPFTFGSGTKLEIKR .
7.57

State, in one line, measured pKd of 4E7-C9 Fab (Fab, V domains shown, also called BDX-4E7-C9) VH: EVQVVETGGSLVQPGKSLKLTCATSGFTFSNAWMHWVRQSPEKQLEWVAQIKDKSNNYATYYAESLKGRFTISRDDPKRSIYLQMNSLREEDTAIYYCRYVHYGIGYAMDAWGQGTSVTVSS VL: DVVMTQTPVSLSVSLGGQVSISCRSSQSLEHNNGNTYLSWYLQKPGQSPQPLIYKVSNRFSGISDRFSGSGSGTDFTLKISRVEPDDLGVYYCGQGTQYPFTFGPGTKLELKR
7.77

Give pKd for the following binder: 13H2-C2 Fab (Fab, V domains shown, also called 13H2-C3) VH: EEELVETGGSLVQPGKSLKLTCATSGFTFSNAWMHWVRQSPDKQLEWVAQIKAKSNNYATYYAESVKGRFTISRDDSKSSVYLQMNNLKEEDTAIYYCRYVHYGLAPMDAWGQGTSVTVSS VL: DVVMTQTPVSLSVSLGGQVSISCRSSQSLVHNNGNTYLSWYLQKAGQSPQLLIYKVSNRFSGISDRFSGSGSGTDFILKISRVEPDDLGVFYCGQGTQYPFTFGAGTKLELK
7.54

Name the recorded pKd of the binder listed here: 20E5-F10 Fab (Fab, V domains shown, also called 20E5-F10-huFab) VH: EVQLVETGENLVQPGKSLRLTCATSGFSFSNAWMHWIRQSPEKQLEWVAQIKDKSNNYATYYAESVNGRFTISRDDSKSSIYLHMDNLKEEDSAIYYCRYVHYGVRFFYTMDVWGQGTSVTVSS VL: DVVMTQTPVSLSVSLGDQVSISCRPSQSLVHNNGNTYLSWYLQKPGQSPHPLIYKVSNRFSGISDRFSGSGSGTDFTLKISRVEPDDLGVYYCGQGTQYPFTFGSGTKLEIK
8.37

Using known records, supply pKd for 12G3-E8 Fab (Fab, V domains shown) VH: EVRVVETGGSLVQPGKSLKLTCATSGFTFSLAWMHWVRQSPEKKLEWVAQIKDKANNYATYYAESVKGRFTISRDDSKRSVYLQMNRLKEEDTAIYYCRGVYYGFSMTPFDYWGQGVMVTVSS VL: DVAMTQTPVSLSVSLGGQVSISCRSSQSLVHNNGNTYLSWYLQKPGQSPQVLIYKVSNRFSGISDRFSGSGSGADFTLKISRVEPDDLGVYYCGQGTQYPFTFGAGTKLELK
8.03
